Values were extracted from patent US20230233569A1.

# Tested target: NRAS G12C (Homo sapiens, UniProt P01111+P62937, G12C)
# Sequence (P01111 whole entry G12C): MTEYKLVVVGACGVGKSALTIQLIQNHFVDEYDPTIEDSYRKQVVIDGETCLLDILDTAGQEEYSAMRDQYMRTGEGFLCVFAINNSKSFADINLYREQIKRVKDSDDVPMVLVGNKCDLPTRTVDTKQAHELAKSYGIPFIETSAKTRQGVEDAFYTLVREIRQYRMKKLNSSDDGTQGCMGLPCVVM
# Sequence (P62937 whole entry): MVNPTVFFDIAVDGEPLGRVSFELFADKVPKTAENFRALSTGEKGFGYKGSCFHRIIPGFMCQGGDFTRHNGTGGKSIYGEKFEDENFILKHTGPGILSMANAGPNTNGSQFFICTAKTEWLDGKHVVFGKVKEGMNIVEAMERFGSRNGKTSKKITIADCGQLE
# Protocol notes: Disruption of BRAF RBD interaction with Ras (FRET / MOA assay, with Cyclophilin A)
# Format: biochemical
# Stated conditions: NRAS G12C FRET data IC50, NRAS G12C
# IC50 per record follows

In the examples that follow, each entry is paired with its recorded IC50.
Compound	Reported result
CCn1c(-c2cccnc2[C@H](C)OC)c2c3cc(ccc31)-c1cc(O)cc(c1)C[C@H](NC(=O)[C@H](C(C)C)N(C)C(=O)[C@@H]1CC1(F)F)C(=O)N1CCC[C@H](N1)C(=O)OCC(C)(C)C2	0.1 to 1 µM
CCn1c(-c2cccnc2[C@H](C)OC)c2c3cc(ccc31)-c1cccc(c1)C[C@H](NC(=O)[C@H](C(C)C)N(C)C(=O)[C@H]1CCN(C(=O)CNC)C1)C(=O)N1CCC[C@H](N1)C(=O)OCC(C)(C)C2	0.1 to 1 µM
CCn1c(-c2cnccc2COC)c2c3cc(ccc31)-c1cc(O)cc(c1)C[C@H](NC(=O)[C@H](C(C)C)N(C)C(=O)[C@@H]1NC[C@@H]3C[C@@H]31)C(=O)N1CCC[C@H](N1)C(=O)OCC(C)(C)C2	0.1 to 1 µM
C=CC(=O)N1CC[C@H](C(=O)N(C)[C@H](C(=O)N[C@H]2Cc3cccc(c3)-c3ccc4c(c3)c(c(-c3cccnc3[C@H](C)OC)n4CC)CC(C)(C)COC(=O)[C@@H]3CCCN(O3)C2=O)C(C)C)C1	1 to 10 µM
CCn1c(-c2cccnc2[C@H](C)OC)c2c3cc(ccc31)-c1csc(n1)C[C@H](NC(=O)[C@H](C(C)C)N(C)C(=O)N1CCC[C@@H](N(C)C)CC1)C(=O)N1CCC[C@H](N1)C(=O)OCC(C)(C)C2	0.01 to 0.1 µM

Record C=CC(=O)N1CCO[C@@]2(CCN(C(=O)N(C)[C@H](C(=O)N[C@H]3Cc4nc(cs4)-c4ccc5c(c4)c(c(-c4cccnc4[C@H](C)OC)n5CC(F)(F)F)CC(C)(C)COC(=O)C4CCCN(N4)C3=O)C(C)C)C2)C1 (some centres unmarked) . Reported IC50: 0.01 to 0.1 µM

// IC50 lookup, compound = CCn1c(-c2cnccc2COC)c2c3cc(ccc31)-c1cc(O)cc(c1)C[C@H](NC(=O)[C@H](C(C)C)N(C)C(=O)OC1CCOC1)C(=O)N1CCC[C@H](N1)C(=O)OCC(C)(C)C2 (some centres unmarked) , result: 1 to 10 µM

Entry `CCn1c(-c2cnccc2COC)c2c3cc(ccc31)-c1cc(O)cc(c1)C[C@H](NC(=O)[C@H](C(C)C)N(C)S(C)(=O)=O)C(=O)N1CCC[C@H](N1)C(=O)OCC(C)(C)C2` ; IC50 = 1 to 10 µM

###

# Tested target: KRAS WT (Homo sapiens, UniProt P01116+P62937)
# Sequence (P01116 1-169 isoform P01116-2 limits assumed, one chain of several): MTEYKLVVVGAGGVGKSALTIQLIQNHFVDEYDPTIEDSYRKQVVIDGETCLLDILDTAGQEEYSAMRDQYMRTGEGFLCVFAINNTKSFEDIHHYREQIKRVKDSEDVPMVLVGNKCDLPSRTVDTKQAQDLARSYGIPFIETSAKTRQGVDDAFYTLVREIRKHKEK
# Protocol notes: Disruption of BRAF RBD interaction with Ras (FRET / MOA assay, with Cyclophilin A)
# Format: biochemical
# Stated conditions: KRAS WT; read-out: KRAS WT FRET data IC50
IC50 values, listed per item

Worked set:
Compound	Reported endpoint	Reported result
CCn1c(-c2cccnc2[C@H](C)OC)c2c3cc(ccc31)-c1csc(n1)C[C@H](NC(=O)[C@H](C(C)C)N(C)C(=O)N1CCN3CCOC[C@@H]3C1)C(=O)N1CCC[C@H](N1)C(=O)OCC(C)(C)C2	IC50	100 to 1000 nM
C=CC(=O)N1CC[C@H](C(=O)N(C)[C@H](C(=O)N[C@H]2Cc3cc(O)cc(c3)-c3cc(F)c4c(c3)c(c(-c3ccccc3CCOC)n4CC)CC(C)(C)COC(=O)[C@@H]3CCCN(N3)C2=O)C(C)C)C1	IC50	> 10000 nM
CCn1c(-c2cccnc2[C@H](C)OC)c2c3cc(ccc31)-c1csc(n1)C[C@H](NC(=O)[C@@H](OC(=O)N1CC(N(C)C)C1)C(C)C)C(=O)N1CCC[C@H](N1)C(=O)OCC(C)(C)C2	IC50	100 to 1000 nM
C=CC(=O)N1CC[C@H](C(=O)N(C)[C@H](C(=O)N[C@H]2Cc3cc(O)cc(c3)-c3ccc4c(c3)c(c(-c3ccncc3)n4C(C)(C)C#N)CC(C)(C)COC(=O)[C@@H]3CCCN(N3)C2=O)C(C)C)C1	IC50	1000 to 10000 nM
CCn1c(-c2cccnc2[C@H](C)OC)c2c3cc(ccc31)-c1csc(n1)C[C@H](NC(=O)[C@H](C(C)C)N(C)C(=O)N1C3CC1CN(C)C3)C(=O)N1CCC[C@H](N1)C(=O)OCC(C)(C)C2	IC50	100 to 1000 nM

Briefly, IC50 measured for CCn1c(-c2cc(N3CCN(C)CC3)cnc2[C@H](C)OC)c2c3cc(ccc31)-c1csc(n1)C[C@H](NC(=O)[C@H](C(C)C)N(C)C(=O)N1C[C@@H](C)N(C)C[C@H]1C)C(=O)N1CCC[C@H](N1)C(=O)OCC(C)(C)C2 (atropisomer, axis not shown) : 100 to 1000 nM

Record summary for `CCn1c(-c2cccnc2[C@H](C)OC)c2c3cc(ccc31)-c1csc(n1)C[C@H](NC(=O)c1ccccn1)C(=O)N1CCC[C@H](N1)C(=O)OCC(C)(C)C2` : reported IC50 = 1000 to 10000 nM

Field IC50 (entry CCn1c(-c2cccnc2[C@H](C)OC)c2c3cc(ccc31)-c1csc(n1)C[C@H](NC(=O)[C@H](C(C)C)N(C)C(=O)N1CCCOCC1)C(=O)N1CCC[C@H](N1)C(=O)OCC(C)(C)C2 (atropisomer, axis not shown) ) reads 10 to 100 nM
